Tested on: Bacillus subtilis
Procedure Text: cleaved RNA product abundance (RNA/gDNA barcode ratio) relative to median wild-type variant (ratio to wild type); higher = more accumulation of the downstream cleavage product
Experimental Conditions: experiment (reporter, strain, medium): exp 4a: truncated aprE reporter, strain BJT201 with 2% xylose (RNase J1 expressed); cleavage site: cggR-gapA (positions -7 to +36 mutated)
Label Y for high-side cleaved RNA product abundance (at or above 0.4) and N for low-side cleaved RNA product abundance (below it).

Worked examples, 5 sequences total:
> print(dat)
                                      chain  classification
1  ACAGACGAAGGAGCCGCAAAGAAGGTATTAAGGCATGAATAATCCCTCAATATAAATATCTCTCACTTATTTAAA               N
2  ACAGACGAAGGAGCCGCAAAGAAGTTTATTAAGGGATGAATAATCCCTCAATATAAATATCTCTCACTTATTTAA               Y
3  ACAGACGAAGGAGCCGCAAAGAAATTATTAAGGGATGAATAATCCCTCAAGATAAATATCTCTCACTTATTTAAA               N
4  ACAGACGAAGGAGCCGCAAAGAAGTTATTAAGGGATGTATAATCTCTCAATATAAATATCTCTCACTTATTTAAA               Y
5  ACAGACGAAGGAGCCGCAAAGAAGTTATTAATGGATGAATAACCCCTCAATATAAATATCTCTCACTTATTTAAA               N

Ask: Determine whether measured cleaved RNA product abundance meets or exceeds 0.4 for "ACAGACGAAGGAGCCGCAAAGAAGTTATTAATAGATGAATAATCCCTCAATATAAATATCTCTCACTTATTTAAA"
Reply: N

Ask: # check: cleaved RNA product abundance of "ACAGACGAAGGAGCCGCAAAGAAGTTATTAAGGGATGAATAATACCTTAATATAAATATCTCTCACTTATTTAAA" is greater than or equal to 0.4
Reply: Y

Ask: Check the entry "ACAGACGAAGGAGCCGCAAAGAAGTTATTAAGGGATGAACAATCCCTCAATATATATATCTCTCACTTATTTAAA" : does cleaved RNA product abundance equal or exceed 0.4?
Reply: Y

Ask: # bool: cleaved RNA product abundance of "ACAGACGAAGGAGCCGCAAAGAAGTTATTAATCGATGAATAATCCCTCAATATAAATATCTCTCACTTATTTAAA" >= 0.4
Reply: N

Ask: Does "ACAGACGAAGGAGCCGCAAAGAAGTTACTAAGGGATGAATAATCTCTCAATATAAATATCTCTCACTTATTTAAA" have a reported cleaved RNA product abundance of at least 0.4?
Reply: N

----------
Tested on: Bacillus subtilis
Procedure Text: cleaved RNA product abundance (RNA/gDNA barcode ratio) relative to median wild-type variant (ratio to wild type); higher = more accumulation of the downstream cleavage product
Experimental Conditions: experiment (reporter, strain, medium): exp 4a: truncated aprE reporter, strain BJT201 with 2% xylose (RNase J1 expressed); cleavage site: cggR-gapA (positions -7 to +36 mutated)
Below: a set of entries, each annotated with reported cleaved RNA product abundance.
Output spec: single numeric token, no unit.

Some sequences with known cleaved RNA product abundance results, for comparison:
> print(dat)
                                      chain                       endpoint  reading
1  ACAGACGAAGGAGCCGCAAAAAAGTTATTAAGGGATGAATAATCCCTCAATATAAATATCTCTCACTTATTTAAA  cleaved RNA product abundance     1.04
2  ACAGACGAAGGAGCCGCAATGAAGTTATTAAGGGATGAATAATACCTCAATATAAATATCTCTCACTTATTTAAA  cleaved RNA product abundance    0.138
3  ACAGACGAAGGAGCCGCAAAGAATTTATTAAGGGATGAATAATCCCCCAATATAAATATCTCTCACTTATTTAAA  cleaved RNA product abundance    0.202
4  ACAGACGAAGGAGCCGCGAAGAAGTTATTAAGGGATCAATAATCCCTCAATATAAATATCTCTCACTTATTTAAA  cleaved RNA product abundance    0.762
5  ACAGACGAAGGAGCCGCAAAGAAGTTATTAAGATATGAATAATCCCTCAATATAAATATCTCTCACTTATTTAAA  cleaved RNA product abundance    0.115

Ask: Form field - read-out: cleaved RNA product abundance; system: Bacillus subtilis; submitted item: "ACAGACGAAGGAGCCGCAAAGAAGTTATAAAGGGATGAATAATCCCTCAAAATAAATATCTCTCACTTATTTAAA"
Reply: 0.292

Ask: Value wanted: cleaved RNA product abundance (Bacillus subtilis) of entry "ACAGACGAAGGAGCCGCAAAGAAGTTATTAAGGGTTGAATAATCCCTCAATATAAATATTTCTCACTTATTTAAA"
Reply: 0.512
